System: NCI-H226 lung
Assay method text: NCI-60 one-dose screen, 48 h (100 = growth as untreated, 0 = no growth, -100 = all killed)
Condition summary: 10 µM unless noted
Protocol: Growth inhibition of the NCI-H226 human Non-Small Cell Lung tumor cell line is measured as a screen for anti-cancer activity. Cells are grown in 96 well plates and exposed to the test compound for 48 hours. Compounds are tested at a single concentration, which is 10^-5 M for most compounds. The reported endpoint is percent growth (GI% or GIPRCNT), where numbers from 0 - 100% represent growth inhibition, and numbers from -100% - 0 represent cell death. […]
About 83,000 compounds went through this panel and 20% of them were active in at least one assay; those are over-represented in the sample as a whole. Calls of active or inactive are those of the source. How the source made its calls: active means growth percent below 10; inactive means the rest.
Reported growth is given for each of the following molecules.
Readout type: growth

>>> print(df.to_string())
                                   molecule               test_result
0     CC(C)c1ccc(C(=O)Nc2nc3ccc(O)cc3s2)cc1          66.6% (inactive)
1  CC(C)C1=NOC(=O)C1=Cc1cn(-c2ccco2)nc1-c1ccccc1           102% (inactive)
2  CC1(C)CC[C@]2(C(=O)O)CC[C@]3(C)C(=CC[C@@H]4[C@@]5(C)C/C(=C/c6ccco6)C(=O)C(C)(C)[C@@H]5CC[C@]43C)[C@@H]2C1  -42.4% [100 µM] (active)
3  O=C(N/N=C/c1ccc([N+](=O)[O-])cc1)c1ccc(Br)o1           100% (inactive)
4  O=C(Nc1ccc(C(=O)/C=C/c2ccc(N3CCOCC3)cc2)cc1)Nc1ccc([N+](=O)[O-])cc1            45% (inactive)
5  N=C(N)c1ccc(-c2ccc(-c3ccc(-c4cccs4)s3)s2)cc1F          95.7% (inactive)
6        COc1ccc(C=C2c3ccccc3-c3ccccc32)cc1          68.6% (inactive)
7  O=C(CSc1nc2ccc([N+](=O)[O-])cc2[nH]1)Nc1cccc(Cl)c1          12.9% (inactive)
8  C#CCOc1ccc(C2=NN(CC3CC3)C3N=C(Cl)c4ncn(CC5CC5)c4N23)cc1OCC#C (centres undefined)          76.4% (inactive)
